# target_or_test_system: 5-HT2A (Homo sapiens (Human), UniProt P28223)
# Sequence (P28223 whole entry): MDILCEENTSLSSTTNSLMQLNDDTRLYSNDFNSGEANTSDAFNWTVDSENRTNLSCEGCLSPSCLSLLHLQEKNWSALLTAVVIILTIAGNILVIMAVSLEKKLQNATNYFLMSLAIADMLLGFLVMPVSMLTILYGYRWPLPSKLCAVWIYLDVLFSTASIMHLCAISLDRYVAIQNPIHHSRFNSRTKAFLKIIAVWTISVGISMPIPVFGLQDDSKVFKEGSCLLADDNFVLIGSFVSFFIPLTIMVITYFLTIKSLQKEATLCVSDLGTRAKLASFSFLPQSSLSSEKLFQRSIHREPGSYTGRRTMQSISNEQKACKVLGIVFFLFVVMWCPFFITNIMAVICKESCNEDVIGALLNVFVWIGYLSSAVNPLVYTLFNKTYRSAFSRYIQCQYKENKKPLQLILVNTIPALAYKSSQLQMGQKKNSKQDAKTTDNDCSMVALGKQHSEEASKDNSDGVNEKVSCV
# assay_notes: Radioligand binding assay, [^3H]5-HT competition, 5-HT2A
# run_parameters: [^3H]5-HT radioligand, membranes of HEK293 cells expressing recombinant 5-HT2A; Ki from IC50 by Cheng-Prusoff; read-out: 5-HT2A serotonin binding Ki value
observation_type: pKi
Just so you know, pKi here is -log10 of the concentration in molar units; reply with that number alone.

Using the record for `Cc1ncoc1C(=O)Nc1ccc(OC[C@H]2CCCCN2)c(-c2c(C)ncnc2C)c1` , report its pKi.
7.45

Using the record for Cc1ncnc(C)c1-c1cc(NC(=O)C2CC2)ccc1OCCN1CCN2C(=O)CCC2C1 (stereo not shown) , report its pKi.
7.51

Using the record for Cc1ncnc(C)c1-c1cc(NC(=O)CC2CCCO2)ccc1OCCN1CCCC1 (stereo not shown) , report its pKi.
6.95

Using the record for `Cc1ncnc(C)c1-c1cc(NC(=O)c2cccn2C)ccc1OCCN1CCCC1` , report its pKi.
8.43

---

# target_or_test_system: 5-HT2A (Homo sapiens (Human))
# assay_notes: HTRF IP-One antagonist assay, 5-HT2A
# run_parameters: HEK293 cells stably expressing receptor, inositol phosphate accumulation, 80 nM 5-HT in Assay Buffer
Could you please report measured pIC50 for the items listed next?
Just so you know, pIC50 here is -log10 of the concentration in molar units; reply with that number alone.

Using the record for COCCNCCOc1ccc(NC(=O)C2(F)CC2)cc1-c1c(C)ncnc1C [Compound 453] , report its pIC50.
8.32

Using the record for COC1(C(=O)Nc2ccc(OCCN3CCCC3)c(-c3c(C)ncnc3C)c2)CC1 [Compound 244] , report its pIC50.
7.87

Using the record for Cc1ncnc(C)c1-c1cc(NC(=O)C2C3COCC32)ccc1OCCN1CCCC1 (stereo not shown) [Compound 232] , report its pIC50.
6.85

Using the record for Cc1ncnc(C)c1-c1cc(NC(=O)c2c(F)cnn2C)ccc1OCCN1CCC1 [Compound 316] , report its pIC50.
8.16

---

# target_or_test_system: 5-HT2A (Homo sapiens (Human))
# assay_notes: Radioligand binding assay, [^3H]5-HT competition, 5-HT2A
# run_parameters: [^3H]5-HT radioligand, membranes of HEK293 cells expressing recombinant 5-HT2A; Ki from IC50 by Cheng-Prusoff; read-out: 5-HT2A serotonin binding Ki value
Could you please report measured pKi for the items listed next?
Just so you know, pKi here is -log10 of the concentration in molar units; reply with that number alone.

Using the record for `Cc1ncnc(C)c1-c1cc(NC(=O)Cc2ccccc2)ccc1OCCN1CCCC1` , report its pKi.
8.69

Using the record for `Cc1ncnc(C)c1-c1cc(NC(=O)COC2CC2)ccc1OCCN1CCCC1` , report its pKi.
7.56

Using the record for `Cc1nc(CC(=O)Nc2ccc(OCCN3CCCC3)c(-c3c(C)ncnc3C)c2)no1` , report its pKi.
7.04

Using the record for `Cc1ncnc(C)c1-c1cc(NC(=O)c2cccc(F)c2)ccc1OC[C@H]1CCCCN1` , report its pKi.
8.19

---

# target_or_test_system: 5-HT2A (Homo sapiens (Human))
# assay_notes: HTRF IP-One antagonist assay, 5-HT2A;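 further: clonal line with low receptor density (about 50–70 fmol/mg), 10-point dose-response from 10 µM in 5-fold steps, HTRF detection after 1 hr, triplicate points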
# run_parameters: HEK293 cells stably expressing receptor, inositol phosphate accumulation, 80 nM 5-HT in Assay Buffer
observation_type: pIC50
Just so you know, pIC50 here is -log10 of the concentration in molar units; reply with that number alone.

Using the record for `Cc1ncnc(C)c1-c1cc(NC(=O)Cc2ccn(C)c2)ccc1OCCN1CCCC1` , report its pIC50.
7.20

Using the record for `Cc1ncnc(C)c1-c1cc(NC(=O)c2ccc(F)cc2)ccc1OCCN1CCC1` , report its pIC50.
8.20

Using the record for `Cc1ncnc(C)c1-c1cc(NC(=O)c2ccccc2)ccc1OC1CNC1` , report its pIC50.
7.41

Using the record for `Cc1ncnc(C)c1-c1cc(NC(=O)c2ccnn2C)ccc1OCCN1CCCC1` , report its pIC50.
8.20
